- System: UACC-257
- experiment.description: NCI tumour cell line growth inhibition, 48 h
Activity calls are given as the source filed them. Cut-off read from the data, not from the text of the source: active = GI50 up to about 1.1 µM and inactive = higher.
# reported GI50; entries follow
value.kind: GI50

compound=Cc1ccc(S[C@@H](C)[C@@](O)(CF)CN(Cc2ccccc2)C(=O)C(F)(F)F)cc1 test_system=UACC-257 data_value="20.9 µM (inactive)"
compound=COc1ccccc1N1CCN(CCCCNC(=O)c2ccc([N+](=O)[O-])o2)CC1 test_system=UACC-257 data_value="4.1 µM (inactive)"
compound="O=S(=O)(O)C1CCC(O)C2NCCCC21 (stereo not given)" test_system=UACC-257 data_value="> 100 µM (inactive)"
compound=Cc1cc(Nc2ccc(/N=N/c3ccc(O)c4ncccc34)cc2)nc(C)n1 test_system=UACC-257 data_value="16.6 µM (inactive)"
compound=COc1ccc(-c2cc(=O)c3c(OC)c(OC)c(OC)c(OC)c3o2)cc1 test_system=UACC-257 data_value="68.4 µM (inactive)"
